Reference source for all entries: patent US20240400708A1

Molecular target: Feline FcRn complex (FcRn-alpha subunit and beta-microglobulin) (feline)
Assay: SPR (Biacore), feline FcRn captured on SA chip, IgG flowed over, pH 6
reported_endpoint: Kd

| binder | reported_endpoint | assay_value |
| --- | --- | --- |
| feline IgG1a Fc mutant Q311Y, S428L (antibody, part only; not given: Variable domains, not shown: another chain or arm of the molecule; small tags and cut ends) constant: ASTTAPSVFPLAPSCGTTSGATVALACLVLGYFPEPVTVSWNSGALTSGVHTFPAVLQASGLYSLSSMVTVPSSRWLSDTFTCNVAHPPSNTKVDKTVRKTDHPPGPKPCDCPKCPPPEMLGGPSIFIFPPKPKDTLSISRTPEVTCLVVDLGPDDSDVQITWFVDNTQVYTAKTSPREEQFNSTYRVVSVLPILHYDWLKGKEFKCKVNSKSLPSPIERTISKAKGQPHEPQVYVLPPAQEELSRNKVSVTCLIKSFHPPDIAVEWEITGQPEPENNYRTTPPQLDSDGTYFVYSKLSVDRSHWQRGNTYTCSVLHEALHSHHTQKSLTQSPGK | Kd | 5.72 nM |
